- Organism: Rattus norvegicus
- protocol.text: Open TG-GATES - Regimen: Daily Repeat
- Format: toxicity, organism-based, Sprague-Dawley
- Parameters: regimen Daily Repeat, gender Male, age 6 weeks
- conditions.used: in vivo, po, 0 mg/kg, […], tissue Plasma, route gavage, dose level Control, time 7 day
attribute.measured: Ca (mg/dL)

> print(dat)
                                   compound  obs.value
1  Clc1c(Cl)c(Cl)c(Cl)c(Cl)c1Cl [PERCHLOROBENZENE]       10.3
2  CN(C)[C@@H]1C(O)=C(C(N)=O)C(=O)[C@@]2(O)C(O)=C3C(=O)c4c(O)cccc4[C@@](C)(O)[C@H]3C[C@@H]12 [TETRACYCLINE]         11
3  CC(=O)Nc1nnc(S(N)(=O)=O)s1 [ACETAZOLAMIDE]       10.8
4  Cc1cccc(Nc2ccccc2C(=O)O)c1C [MEFENAMIC ACID]       10.6
5  CN1C(C(=O)Nc2ccccn2)=C(O)c2sc(Cl)cc2S1(=O)=O [LORNOXICAM]       10.8

====

- Species: Rattus norvegicus
- protocol.text: Open TG-GATES - Regimen: Single
- Assay type: toxicity, organism-based, Sprague-Dawley
- Parameters: regimen Single, gender Male, age 6 weeks
- conditions.used: in vivo, po, 0 mg/kg, 9 h, tissue Plasma, route gavage, dose level Control
If the reported DBIL equals or exceeds 0.004 mg/dL, assign Criterion met. If not, assign Criterion not met.

molecule	label.class
CCOC(=O)[C@H](CCc1ccccc1)N[C@@H](C)C(=O)N1CCC[C@H]1C(=O)O	Criterion met
CN(C)[C@@H]1C(O)=C(C(N)=O)C(=O)[C@@]2(O)C(O)=C3C(=O)c4c(O)cccc4[C@@](C)(O)[C@H]3C[C@@H]12	Criterion met
CC(=O)Nc1nnc(S(N)(=O)=O)s1 [ACETAZOLAMIDE]	Criterion not met
Clc1c(Cl)c(Cl)c(Cl)c(Cl)c1Cl	Criterion met
Cc1cccc(Nc2ccccc2C(=O)O)c1C	Criterion met
C1CCC(C(CC2CCCCN2)C2CCCCC2)CC1 (stereo not given)	Criterion not met
C#C[C@]1(O)CC[C@H]2[C@@H]3CCC4=Cc5oncc5C[C@]4(C)[C@H]3CC[C@@]21C	Criterion not met
COc1cc([C@@H]2c3cc4c(cc3[C@@H](O[C@@H]3O[C@@H]5CO[C@@H](C)O[C@H]5[C@H](O)[C@H]3O)[C@H]3COC(=O)[C@H]23)OCO4)cc(OC)c1O [ETOPOSIDE]	Criterion met
CN1C(C(=O)Nc2ccccn2)=C(O)c2sc(Cl)cc2S1(=O)=O	Criterion met

====

- Species: Rattus norvegicus
- protocol.text: Open TG-GATES - Regimen: Daily Repeat
- Type: toxicity, organism-based, Sprague-Dawley
- Set-up: regimen Daily Repeat, gender Male, age 6 weeks
- conditions.used: in vivo, po, 0 mg/kg, […], tissue Plasma, route gavage, dose level Control, time 14 day
attribute.measured: ALT (IU/L)

> print(dat)
                                   compound  attribute.measured  display.unit  obs.value
1              Clc1c(Cl)c(Cl)c(Cl)c(Cl)c1Cl                 ALT          IU/L       31.2
2  CN(C)[C@@H]1C(O)=C(C(N)=O)C(=O)[C@@]2(O)C(O)=C3C(=O)c4c(O)cccc4[C@@](C)(O)[C@H]3C[C@@H]12                 ALT          IU/L       30.6
3               Cc1cccc(Nc2ccccc2C(=O)O)c1C                 ALT          IU/L         31
4  C1CCC(C(CC2CCCCN2)C2CCCCC2)CC1 (centres undefined)                 ALT          IU/L       39.2
5            O=C(O)Cc1ccccc1Nc1c(Cl)cccc1Cl                 ALT          IU/L       31.2
6  CC(CN1c2ccccc2Sc2ccccc21)N(C)C (centres undefined)                 ALT          IU/L         40
7  C#C[C@]1(O)CC[C@H]2[C@@H]3CCC4=Cc5oncc5C[C@]4(C)[C@H]3CC[C@@]21C                 ALT          IU/L       36.8
8  CN1C(C(=O)Nc2ccccn2)=C(O)c2sc(Cl)cc2S1(=O)=O                 ALT          IU/L       35.6
9  CCOC(=O)[C@H](CCc1ccccc1)N[C@@H](C)C(=O)N1CCC[C@H]1C(=O)O                 ALT          IU/L         31

====

Entries and their Ca
- Organism: Rattus norvegicus
- protocol.text: Open TG-GATES - Regimen: Daily Repeat
- Assay type: toxicity, organism-based, Sprague-Dawley
- Design: regimen Daily Repeat, gender Male, age 6 weeks
- conditions.used: in vivo, po, 0 mg/kg, 72 h, tissue Plasma, route gavage, dose level Control, time 3 day
attribute.measured: Ca (mg/dL)

> print(dat)
                                   molecule  obs.value
1  Clc1c(Cl)c(Cl)c(Cl)c(Cl)c1Cl [PERCHLOROBENZENE]       10.5
2  C1CCC(C(CC2CCCCN2)C2CCCCC2)CC1 (stereo not drawn) [PERHEXILINE]         11
3  CCOC(=O)[C@H](CCc1ccccc1)N[C@@H](C)C(=O)N1CCC[C@H]1C(=O)O         11
4  Cc1cccc(Nc2ccccc2C(=O)O)c1C [MEFENAMIC ACID]         11
5  CC(=O)Nc1nnc(S(N)(=O)=O)s1 [ACETAZOLAMIDE]       10.8
6  CN(C)[C@@H]1C(O)=C(C(N)=O)C(=O)[C@@]2(O)C(O)=C3C(=O)c4c(O)cccc4[C@@](C)(O)[C@H]3C[C@@H]12 [TETRACYCLINE]       11.2
7  CN1C(C(=O)Nc2ccccn2)=C(O)c2sc(Cl)cc2S1(=O)=O [LORNOXICAM]       10.6
8  CC(CN1c2ccccc2Sc2ccccc21)N(C)C (stereo not drawn) [PROMETHAZINE]       10.5

====

- Species: Rattus norvegicus
- protocol.text: Open TG-GATES - Regimen: Daily Repeat
- Type: toxicity, organism-based, Sprague-Dawley
- Design: regimen Daily Repeat, gender Male, age 6 weeks
- conditions.used: in vivo, po, 0 mg/kg, […], tissue Blood, route gavage, dose level Control, time 28 day
Listed next: entries and their corresponding WBC.
attribute.measured: WBC (x10_2/uL)

> print(dat)
                                   molecule  display.unit  obs.value
1  CN1C(C(=O)Nc2ccccn2)=C(O)c2sc(Cl)cc2S1(=O)=O [LORNOXICAM]      x10_2/uL      101.8
2  CCOC(=O)[C@H](CCc1ccccc1)N[C@@H](C)C(=O)N1CCC[C@H]1C(=O)O      x10_2/uL      125.5
3  Cc1cccc(Nc2ccccc2C(=O)O)c1C [MEFENAMIC ACID]      x10_2/uL       91.7
4  C#C[C@]1(O)CC[C@H]2[C@@H]3CCC4=Cc5oncc5C[C@]4(C)[C@H]3CC[C@@]21C [DANAZOL]      x10_2/uL      119.8
5  O=C(O)Cc1ccccc1Nc1c(Cl)cccc1Cl [DICLOFENAC]      x10_2/uL      127.9
6  CC(CN1c2ccccc2Sc2ccccc21)N(C)C (centres undefined) [PROMETHAZINE]      x10_2/uL        124
7  C1CCC(C(CC2CCCCN2)C2CCCCC2)CC1 (centres undefined) [PERHEXILINE]      x10_2/uL      110.4
8  CN(C)[C@@H]1C(O)=C(C(N)=O)C(=O)[C@@]2(O)C(O)=C3C(=O)c4c(O)cccc4[C@@](C)(O)[C@H]3C[C@@H]12 [TETRACYCLINE]      x10_2/uL      164.6
9  Clc1c(Cl)c(Cl)c(Cl)c(Cl)c1Cl [PERCHLOROBENZENE]      x10_2/uL      133.5

====

Overview of recorded RALB for various molecules
- Species: Rattus norvegicus
- protocol.text: Open TG-GATES - Regimen: Daily Repeat
- Assay type: toxicity, organism-based, Sprague-Dawley
- Design: regimen Daily Repeat, gender Male, age 6 weeks
- conditions.used: in vivo, po, 0 mg/kg, […], tissue Plasma, route gavage, dose level Control, time 14 day
attribute.measured: RALB (g/dL)

> print(dat)
                                   molecule  display.unit  obs.value
1  CN(C)[C@@H]1C(O)=C(C(N)=O)C(=O)[C@@]2(O)C(O)=C3C(=O)c4c(O)cccc4[C@@](C)(O)[C@H]3C[C@@H]12          g/dL          4
2  CC(CN1c2ccccc2Sc2ccccc21)N(C)C (stereo not given)          g/dL        3.2
3               Cc1cccc(Nc2ccccc2C(=O)O)c1C          g/dL        3.4
4  CN1C(C(=O)Nc2ccccn2)=C(O)c2sc(Cl)cc2S1(=O)=O          g/dL        3.5
5  CC(=O)Nc1nnc(S(N)(=O)=O)s1 [ACETAZOLAMIDE]          g/dL        3.1

FYI, the data here is from ChEMBL document CHEMBL3885861.
